FYI, the data here is from patent US9890175B2.

tested on: Caco-2 cell monolayer; assay: Caco-2 bidirectional transport, efflux ratio; settings: Caco-2 cell line (21 days); Papp B-A/Papp A-B
experimentalEndpoint: efflux ratio
Write the value as a bare number.

molecularString	system	experimentalEndpoint	resultValue
CO[C@H]1C(=O)[C@]2(C)[C@@H](OC)C[C@H]3OC[C@@]3(OC(C)=O)[C@H]2[C@H](OC(=O)c2ccccc2)[C@]23OC(=O)O[C@H]2[C@H](OC(=O)[C@H](O)[C@@H](NC(=O)OC(C)(C)C)c2ccccc2)C(C)=C1C3(C)C	Caco-2 cell monolayer	efflux ratio	6.42

Request: Check the records and state efflux ratio for CO[C@H]1C(=O)[C@]2(C)CC[C@H]3OC[C@@]3(OC(C)=O)[C@H]2[C@H](OC(=O)c2ccccc2)[C@]23OC(=O)O[C@H]2[C@H](OC(=O)[C@H](O)[C@@H](NC(=O)OC(C)(C)C)c2ccccc2)C(C)=C1C3(C)C
Response: 9.56

Request: Fill in efflux ratio for record CO[C@H]1C[C@H]2OC[C@@]2(OC(C)=O)[C@H]2[C@H](OC(=O)c3ccccc3)[C@]34OC(=O)O[C@H]3[C@H](OC(=O)[C@H](O)[C@@H](NC(=O)OC(C)(C)C)c3ccccc3)C(C)=C([C@@H](OC(=O)N(C)C)C(=O)[C@]12C)C4(C)C
Response: 2.04

Request: Indicate the recorded efflux ratio value for this compound: COC(=O)O[C@H]1C[C@H]2OC[C@@]2(OC(C)=O)[C@H]2[C@H](OC(=O)c3ccccc3)[C@]34OC(=O)O[C@H]3[C@H](OC(=O)[C@H](O)[C@H](CC(C)C)NC(=O)OC(C)(C)C)C(C)=C([C@@H](OC)C(=O)[C@]12C)C4(C)C
Response: 7.81
